The reported measurements were obtained from patent US11555032B2.

# test system: human FXR (NR1H4) (Homo sapiens)
# Sequence (Q96RI1 whole entry): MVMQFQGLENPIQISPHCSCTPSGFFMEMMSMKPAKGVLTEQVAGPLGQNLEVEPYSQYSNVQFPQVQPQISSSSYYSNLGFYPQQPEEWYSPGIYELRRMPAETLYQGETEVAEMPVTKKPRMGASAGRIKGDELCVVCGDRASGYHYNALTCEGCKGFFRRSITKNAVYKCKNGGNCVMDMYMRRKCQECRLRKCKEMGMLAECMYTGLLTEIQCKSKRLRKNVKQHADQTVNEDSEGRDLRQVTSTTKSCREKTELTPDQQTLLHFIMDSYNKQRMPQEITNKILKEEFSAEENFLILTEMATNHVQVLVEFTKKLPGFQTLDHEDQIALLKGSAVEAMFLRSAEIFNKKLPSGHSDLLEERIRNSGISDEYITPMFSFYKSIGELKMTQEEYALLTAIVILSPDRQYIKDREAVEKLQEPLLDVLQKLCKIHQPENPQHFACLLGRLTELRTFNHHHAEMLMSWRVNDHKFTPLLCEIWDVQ
# procedure text: Human FXR (NRIH4) Assay, luciferase reporter
# setup conditions: CHO reporter cells expressing human NR1H4, luciferase, 22 hours incubation
What EC50 was measured for each of the following?

Record request: EC50 value, item COC(=O)c1ccc2nc(SC3C4CCC3CC(OCc3c(-c5ccccc5OC(F)(F)F)noc3C3CC3)C4)sc2c1 (stereo not drawn) [Example 11-9] 25 to 500 nM

EC50 for COC(=O)c1cccc2c(S(=O)(=O)NC3C4CCC3CC(OCc3c(-c5ccccc5OC(F)(F)F)noc3C3CC3)C4)cccc12 (stereo not drawn) [Example 9-4] ? 25 to 500 nM

Endpoint output: EC50 of O=C(O)c1ccc2cc(S(=O)(=O)C3C4CCC3CC(OCc3c(-c5ccccc5OC(F)(F)F)noc3C3CC3)C4)ccc2c1 (stereo not drawn) [Example 11-4] . Value? 25 to 500 nM

Which EC50 value is on record for FC(F)(F)Oc1ccccc1-c1noc(C2CC2)c1COC1CC2CCC(C1)C2Nc1cnc2cc(-c3nnn[nH]3)ccc2n1 (stereo not drawn) [Example 25] ? 25 to 500 nM

Quick one: EC50 of O=C(O)c1cccc2nc(NC3C4CCC3CC(OCc3c(-c5ccccc5OC(F)(F)F)noc3C3CC3)C4)ncc12 (stereo not drawn) [Example 3-13] ? < 25 nM

Recorded EC50 of O=S(=O)(NC1C2CCC1CC(OCc1c(-c3ccccc3OC(F)(F)F)noc1C1CC1)C2)c1ccc2ccccc2c1 (stereo not drawn) [Example 9-12] , please. < 25 nM

What does the data say about its EC50? Entry: FC(F)(F)Oc1ccccc1-c1noc(C2CC2)c1COC1CC2CCC(C1)C2Nc1ncc(-c2ccccc2)cn1 (stereo not drawn) [Example 8-7] > 500 nM

Return reported EC50; argument: N#Cc1cccc2ncc(NC3C4CCC3CC(OCc3c(-c5ccccc5OC(F)(F)F)noc3C3CC3)C4)nc12 (stereo not drawn) [Example 47] 25 to 500 nM

Bench note: what EC50 did N#Cc1ccc2nc(NC3C4CCC3CC(OCc3c(-c5ccccc5OC(F)(F)F)noc3C3CC3)C4)cnc2c1 (stereo not drawn) [Example 35] show? < 25 nM

Dear colleague, I am looking for the recorded EC50 of the following compound: O=C(O)c1ccc2cc(S(=O)(=O)NC3C4CCC3CC(OCc3c(-c5ccccc5OC(F)(F)F)noc3C3CC3)C4)ccc2c1 (stereo not drawn) [Example 9-7] 25 to 500 nM

Would you kindly share the measured EC50 for O=C(NS(=O)(=O)C1CC1)c1cccc2nc(NC3C4CCC3CC(OCc3c(-c5ccccc5OC(F)(F)F)noc3C3CC3)C4)cnc12 (stereo not drawn) [Example 34] ? < 25 nM

What value of measured EC50 is listed for O=C(O)c1cc(F)c2nc(SC3C4CCC3CC(OCc3c(-c5ccccc5OC(F)(F)F)noc3C3CC3)C4)sc2c1 (stereo not drawn) [Example 11-17] ? < 25 nM

What EC50 value was documented for this compound, CCOC(=O)c1cccc(SC2C3CCC2CC(OCc2c(-c4ccccc4OC(F)(F)F)noc2C2CC2)C3)c1 (stereo not drawn) [Example 11-5] ? > 500 nM

Could you tell me which EC50 is on file for CC(C)Oc1cc(C(=O)O)cc2sc(N[C@H]3C[C@@H]4C[C@H]3C[C@@H]4OCc3c(-c4ccccc4OC(F)(F)F)noc3C3CC3)nc12 [Example 5] ? 25 to 500 nM

Reported EC50 for O=C(O)c1cc2sc(NC3C4CCC3CC(OCc3c(-c5ccccc5OC(F)(F)F)noc3C3CC3)C4)nc2c(F)c1F (stereo not drawn) [Example 3-9] : what is it? < 25 nM
